assay: soluble on expression in E. coli; label from the status in PepcDB or PDB records
result-type: soluble on expression in E. coli

polymer-sequence: MGPAHKARDDGEGGWSMNSHPPLSVQTLNTLDRKAFTTALHFAFELSPWVVERAWDARPFASVETMHAAMMAVLDAASTADKLALIRAHPELAGKAAIAKQLTAESNAEQASAGLDKLTPDEFARFHALNAAYNTRFGFPFIICVRLNDKASILEAMAARLSNDEASEIAQAITQIGLISKLRLLDAVTHLEHHHHHH
experimental-result: not soluble
//
polymer-sequence: MGSDKIHHHHHHMVSSSAKLHDPEEGSAANFPDIDNLKIAFGQLPSGVVIVTSQGCGGEMVGATVSSFASLSFTPPLVMLGLAQSSTTLSAILDHGHFAVHVVAEPQQDIAMRFASSRADKFSDIDFKLSPSGVPILSEFDTCFHCALERAQSAGDHQLLIGRIVDVSTVERDTTPVAWFNRRFHICEPRALV
experimental-result: not soluble
//
polymer-sequence: MGSDKIHHHHHHMTTKDISRPVCILGLGLIGGSLLRDLHAANHSVFGYNRSRSGAKSAVDEGFDVSADLEATLQRAAAEDALIVLAVPMTAIDSLLDAVHTHAPNNGFTDVVSVKTAVYDAVKARNMQHRYVGSHPMAGTANSGWSASMDGLFKRAVWVVTFDQLFDGTDINSTWISIWKDVVQMALAVGAEVVPSRVGPHDAAAARVSHLTHILAETLAIVGDNGGALSLSLAAGSYRDSTRVAGTDPGLVRAMCESNAGPLVKALDEALAILHEAREGLTAEQPNIEQLADNGYRSRIRYEARSGQRRAKESVSPTITSSRPVLRLHPGTPNWEKQLIHAETLGARIEVF
experimental-result: not soluble

----------
test: soluble on expression in E. coli; label from the status in PepcDB or PDB records
result-type: soluble on expression in E. coli

polymer-sequence: MGSDKIHHHHHHMILCCGEALIDMLPRETTLGEKGFSPYAGGAVFNTGIALGRLGVASGFFTGLSDDMMGDILRDTLRASHVDFSYCATLSRPTTIAFVKLVDGHATYAFYDENTAGRMITEADLPALGEDCEALHFGAISLIPEPCGSTYEALLNREHKTRVISLDPNIRPGFIKDKAAHMARIRRMAALSDIVKFSDEDLAWFGLDGDEDTLARHWLHHGAKLVVVTRGADGAVGYTADHKVEVPSEKVTVVDTVGAGDTFDAGVLASLKMQNLLTKQQVAKLTEEQIAKALALGSKAAAVTVSRAGANPPFAHEIGL
experimental-result: not soluble

polymer-sequence: MLTIGLYNTYDTKKLHEAHIRAIARAAPVAYAYEFHLALIGFPFDSDDPKEVAERVASTTTIGEGGKYLLELAKSNKFHLLDFPKRGFPPQFGEVIATTSKPSKEKVIGSREVAEMALRGKSLMLIIGLGRHGLPKEVFEISKYHLDITDGREISLETCTAIGIIPARIKTLMEALKWK
experimental-result: not soluble

polymer-sequence: MGSDKIHHHHHHMRREEMWKLINATIEPIDTETSSSHILSEQDVNESTSGVIFIHTVGVMPVTVNDLIEEGRCARTDLSYADVILASRPVEEERTPVVYLNPDMNDASFYLLENAREIVPADLAKDVLLDRIVRYKRVQRVVDAVIVTDDPHLRRLLERELTKNFETLSLYERAEVFLEQHVATRPYLLVFSSALPRADGLELLLRAKQETIVPFHAIMISMYNRERDHVLAIERGVDGIMTLPLKVEEFRAWVSRLEGVHG
experimental-result: not soluble

polymer-sequence: MSSTKQKALKKIAKCLELGNSANVNEAAQAIKMAHRLMLKYGLEKDDIEFIKMGKTQSIHLLPANVGSNILKIIRGINTRFGVEAVLLNHKGLKKVEFIGSADRAIFAAFAFDIVYREMNEQTGQFKNSFAGTGTGQLEVTKRVNSFLAGWIEGALEKLPVIAPDEDSANKINDYIDKEFKNIDRETFKQQLKEAMANITADYEKGLKKGRTISVNRPVAGAQAPKLLK
experimental-result: not soluble

polymer-sequence: MSLEIVQEGIAKIIVPEIPKTVSSDMPVFYNPRMRVNRDLAVLGLEYLCKKLGRPVKVADPLSASGIRAIRFLLETSCVEKAYANDISSKAIEIMKENFKLNNIPEDRYEIHGMEANFFLRKEWGFGFDYVDLDPFGTPVPFIESVALSMKRGGILSLTATDTAPLSGTYPKTCMRRYMARPLRNEFKHEVGIRILIKKVIELAAQYDIAMIPIFAYSHLHYFKLFFVKERGVEKVDKLIEQFGYIQYCFNCMNREVVTDLYKFKEKCPHCGSKFHIGGPLWIGKLWDEEFTNFLYEEAQKREEIEKETKRILKLIKEESQLQTVGFYVLSKLAEKVKLPAQPPIRIAVKFFNGVRTHFVGDGFRTNLSFEEVMKKMEELKEKQKEFLEKEGHHHHHH
experimental-result: soluble

polymer-sequence: MKIGDISIHYLNGGNTKMDGGAMFGVVPKPLWSKQYNANERNQINLPTHPILIQTAQYNLIIDAGIGNGKLSEKQLRNFGVDEESHIIADLANYNLTPKDIDYVLMTHMHFDHAAGLTDQAGHAIFENAIHVVQQDEWHEFIAPNIRSKSTYWDKNKGDYSNKLILFEKHFEPVPGIKMQHSGGHSFGHTIITIESQGDKAVHMGDIFPTTAHKNPLWVTAYDDYPMQSIREKERMIPYFIQQQYWFLFYHDENYFAVKYSDDGENIDAYILRETLVDNNLEHHHHHH
experimental-result: soluble

polymer-sequence: AKQQKHFVLVHGGCLGAWIWYKLKPLLESAGHKVTAVDLSAAGINPRRLDEIHTFRDYSEPLMEVMASIPPDEKVVLLGHSFGGMSLGLAMETYPEKISVAVFMSAMMPDPNHSLTYPFEKYNEKCPADMMLDSQFSTYGNPENPGMSMILGPQFMALKMFQNCSVEDLELAKMLTRPGSLFFQDLAKAKKFSTERYGSVKRAYIFCNEDKSFPVEFQKWFVESVGADKVKEIKEADAMGMLSQPREVCKCLLDISDS
experimental-result: soluble

polymer-sequence: MGSDKIHHHHHHAADGEGRGELSPKIKAGDLESKLIVPKNNGLKITGTFLDEISHDIPHQNWGEKEWDLDFQHMKRIGIDTVIMIRSGYRKFMTYPSPYLLKKGCYMPSVDLVDMYLRLAEKYNMKFYFGLYDSGRYWDTGDLSWEIEDNKYVIDEVWKMYGEKYKSFGGWYISGEISRATKGAIDAFRAMGKQCKDISNGLPTFISPWIDGKKAIMGTGKLTREDAVSVQQHEKEWNEIFDGIHEVVDACAFQDGHIDYDELDAFFTVNKKLADKYGMQCWTNAESFDRDMPIRFLPIKFDKLRMKLEAAKRAGYDKAITFEFSHFMSPQSAYLQAGHLYDRYREYFEIK
experimental-result: not soluble

polymer-sequence: MHHHHHHMVGFGELKEEWRGEVVHLSWSPRAFLLKNFLSDEECDYIVEKARPKMVKSSVVDNESGKSVDSEIRTSTGTWFAKGEDSVISKIEKRVAQVTMIPLENHEGLQVLHYHDGQKYEPHYDYFHDPVNAGPEHGGQRVVTMLMYLTTVEEGGETVLPNAEQKVTGDGWSECAKRGLAVKPIKGDALMFYSLKPDGSNDPASLHGSCPTLKGDKWSATKWIHVAPIGGRH
experimental-result: soluble

polymer-sequence: GSHMIKVLSPAKINLGLWVLGRLPSGYHEILTLYQEIPFYDEIYIREGVLRVETNIGIPQEENLVYKGLREFERITGIEINYSIFIQKNIPPGAGLGGGSSNLAVVLKKVNELLGSPLSEEELRELVGSISADAPFFLLGKSAIGRGKGEVLEPVETEISGKITLVIPQVSSSTGRVYSSLREEHFVTPEYAEEKIQRIISGEVEEIENVLGDIARELYPEINEVYRFVEYLGFKPFVSGSGSTVYFFGGASEELKKAAKMRGWKVVELEL
experimental-result: soluble

polymer-sequence: MHGLNKDIIFPLQIFALSNNVLYNFPEQGVVPVLYVIYAQDKADSLEKRLSVRPAHLARLQLLHDEGRLLTAGPMPAVDSNDPGAAGFTGSTVIAEFESLEAAQAWADADPYVAAGVYEHVSVKPFKKVF
experimental-result: not soluble

----------
experiment: soluble on expression in E. coli; label from the status in PepcDB or PDB records

polymer-sequence: MKIACVVLTYNRLSLLKRCIDSIRNQTYQEFDIYVIDNASTDGTAHWLSLQNDLTVISIHENKGPANGFYTCLQVPYDDGYDWIWMMDDDGVADKGQLEELLNKTVKNNLYFTNALVCNIDNPEKIAFGAKKTIDTQREELIKGNINPFNGTFIHRRVIEKNGNIMREMYMYGCETEYQLRAIKNGFQVATVTSAIHYHPSPKVSICHLIPYIKYCSIIDYPIDTLFYIRNKAYINYTYLGFKRSLFMITSYSLYYLFRLKIRKVLLFWKYYREGCKGVVGNKKQ
soluble on expression in E. coli: soluble
--
polymer-sequence: MGHHHHHHSHMAMRQTPLTCSGHTRPVVDLAFSGITPYGYFLISACKDGKPMLRQGDTGDWIGTFLGHKGAVWGATLNKDATKAATAAADFTAKVWDAVSGDELMTLAHKHIVKTVDFTQDSNYLLTGGQDKLLRIYDLNKPEAEPKEISGHTSGIKKALWCSEDKQILSADDKTVRLWDHATMTEVKSLNFNMSVSSMEYIPEGEILVITYGRSIAFHSAVSLDPIKSFEAPATINSASLHPEKEFLVAGGEDFKLYKYDYNSGEELESYKGHFGPIHCVRFSPDGELYASGSEDGTLRLWQTVVGKTYGLWKCVLPEEDSGELAKPK
soluble on expression in E. coli: not soluble
--
polymer-sequence: SEVDINGDSRSTLTTLPLPVAEGSSPGKAEAEKPRCSSTPCSPMRRTVSGYQILHMDSNYLVGFTTGEELLKLAQKCTGGEDSKGEAMPALRAKQLDTGLARSSRLYKTRSRYYQPYEIPAVNGRRRRRMPSSGDKCTKPLPYEPYKALHGPLPLCLLKGKRAHSKSLDYLNLDKMNIKEPADTEVLQYQLQHLTLRGDRVFARNNT
soluble on expression in E. coli: not soluble
--
polymer-sequence: AHHHHHHASAKWVCKICGYIYDEDAGDPDNGISPGTKFEELPDDWVCPICGAPKSEFEKLEDGSRGAYILLLYLPRNSIIKTKGKVFRLKKGYYAYVGSGMNSLEGRVLRHLRKDKKLHWHIDYLTLIATPLKAYLVPSPVRIEEELSKSLNMVGKVVKGFGSSDLSVPGNLFFFDKDPSEKIEEIVWAFLSRKPKSDDLRQDTS
soluble on expression in E. coli: soluble
--
polymer-sequence: MDTVTKLSIIIPAWNEETGIARTLETLLALTAGRGDTEIIVSVSGNDRTKAIARTFPVVVCHSEKGRAVQMNAGAKLATGSILYFLHADTTPPPSFCDDIFSAIERGARAGCFRMTFDDPDWLMQLYGWFTQFPLPVCRGGDQSLFITKELFGQIGGFDERLQIMEDIEIIDRLQRHAGFHILDSTVTTSARKYHTNGTVRLQAIFGTIHLMYALGFSQKNIVAFYRDSIRLEHHHHHH
soluble on expression in E. coli: not soluble
--
polymer-sequence: MSLRGALAGMLALGCLTTSTLAFERWTLEARGKSGYDAPKLEWVEGKTINEIKNPTIQYALPKFEGDVFWDTINAKPVVPDSIYGEFVQYGYELFVNTQAVIGPEVADPNMRYSGNNLSCNSCHLGAGTAKYAAPLVDNHANFPQYRNRENSLGTMAARVNGCMQRSMNGYPLPAEGKEMKAFLAYIHWLGQGIPVGAKIEGRSLKTVDRKMVQQNAADVKNGAEVYARDCASCHGAEGEGLRRESKDGKPAGYEFPPLWGSDDTYNTGAGMYRTLKAADFIKSTMPKGAPTLSDKDAYDVAAFINDYSHYRTVKLNRQNDFVDPKVRVPDHDQPGPYGPEGSYIFPDEGKTQMDYKVGPYKGIIKQKPAAKEGHHHHHH
soluble on expression in E. coli: not soluble
